Catalogue of molecules with associated lowest phenotypically active concentration
System: WPMY1-TUBA1B-RELA
Method description: lowest phenotypically active concentration; higher = less potent
Measurement context: treatment time: 24 h
Counter-ions that a name gives are not always drawn.
Quick reminder: number only, in µM, skip the unit.

Below, each entry is followed by its recorded lowest phenotypically active concentration result.
Molecule	Reported value
Oc1cccc(Nc2ccnc3cc(-c4cccc(CN5CCOCC5)c4)sc23)c1 [LCB 03-0110 dihydrochloride]	3
CCOc1cc(N2CCC(O)CC2)ccc1Nc1ncc2c(n1)N(C)c1ccccc1C(=O)N2C	9
C=C1C(=O)O[C@@H]2[C@H]3O[C@]3(C)CCC=C(C)CC[C@@H]12 [Parthenolide]	9

Now, please, on to the next molecule.
Asked: API: value(readout=lowest phenotypically active concentration, system=WPMY1-TUBA1B-RELA) for record CC[C@]12CCCN3CCc4c(n(c5ccccc45)C(=O)C1)[C@@H]32 [Eburnamonine (-)]
Given back: 9
